System: BxPC-3 (human pancreatic cancer in situ)
ASSAY PROTOCOL: In vitro inhibitory effect against human tumor cells (MTT or SRB)
Type: cell-based
SETUP CONDITIONS: BXPC-3, 72 h, BxPC-3, test method printed MTT (head: SRB), With addition of βGU (1 µg/well), 3 days
pIC50: −log10 of the molar value.
EXPERIMENTAL ENDPOINT: pIC50

CC[C@H](C)[C@@H]([C@@H](CC(=O)N1CCC[C@H]1[C@H](OC)[C@@H](C)C(=O)N[C@H](C)[C@@H](O)c1ccccc1)OC)N(C)C(=O)[C@@H](NC(=O)[C@H](C(C)C)[N+](C)(C)Cc1ccc(O[C@@H]2O[C@H](C(=O)[O-])[C@@H](O)[C@H](O)[C@H]2O)cc1OCc1cn(CCCCCC(=O)Nc2ccc(-c3ccc(/N=N/c4ccc5c(S(=O)(=O)[O-])cc(S(=O)(=O)[O-])c(N)c5c4O)c(C)c3)cc2C)nn1)C(C)C.[Na+].[Na+] [Example compound 4]; 8.72
CC[C@H](C)[C@@H]([C@@H](CC(=O)N1CCC[C@H]1[C@H](OC)[C@@H](C)C(=O)N[C@H](C)[C@@H](O)c1ccccc1)OC)N(C)C(=O)[C@@H](NC(=O)[C@H](C(C)C)[N+](C)(CC)Cc1ccc(O[C@@H]2O[C@H](C(=O)[O-])[C@@H](O)[C@H](O)[C@H]2O)cc1OCc1cn(CCCCCC(=O)Nc2ccc(-c3ccc(/N=N/c4ccc5c(S(=O)(=O)[O-])cc(S(=O)(=O)[O-])c(N)c5c4O)c(C)c3)cc2C)nn1)C(C)C.[Na+].[Na+] (stereo partly drawn) [Example compound 12]; 9.28
CC[C@H](C)[C@@H]([C@@H](CC(=O)N1CCC[C@H]1[C@H](OC)[C@@H](C)C(=O)N[C@H](C)[C@@H](O)c1ccccc1)OC)N(C)C(=O)[C@@H](NC(=O)[C@H](C(C)C)[N+](C)(CC)Cc1ccc(O[C@@H]2O[C@H](C(=O)[O-])[C@@H](O)[C@H](O)[C@H]2O)cc1OCc1cn(CCOCCC(=O)Nc2ccc(-c3ccc(/N=N/c4ccc5c(S(=O)(=O)[O-])cc(S(=O)(=O)[O-])c(N)c5c4O)c(C)c3)cc2C)nn1)C(C)C.[Na+].[Na+] (stereo partly drawn) [Example compound 8]; 9.27
